Reported TGI values are given for each entry in this list.
# System: UO-31 renal
# EXPERIMENT_DESCRIPTION: NCI tumour cell line growth inhibition, 48 h
MEASURE_NAME: TGI

- CC(C)(C)OC(=O)NCCC1CN(C(=O)c2ccccc2)c2ccccc21 (centres undefined): 76.1 µM
- COC(=O)c1cnn2c1n[n+]([O-])c1ccccc12: > 100 µM
- CCC1(COC(NC(=O)c2ccccc2)(C(F)(F)F)C(F)(F)F)COC1: > 100 µM
- CC(C)=C/C=C1/CS(=O)(=O)C=C1C: > 100 µM
- C/C1=C\[C@@H](O)C(=O)/C=C/C=C\c2csc(n2)[C@@H](C)NC(=O)C[C@@]2(CC1)S(=O)SC(=O)[C@]2(C)O (some centres undefined): 0.0889 µM
- COc1cc2c(c(OC)c1OC)-c1ccc(SC)c(=O)cc1[C@@H](NC1OC(CO)C(O)C(O)C1O)CC2 (some centres undefined): > 100 µM
- CC(C)[C@@H]1ON1C(C)c1ccccc1 (some centres undefined): > 100 µM
- O=C([CH-]C(=O)c1ccccc1)c1ccccc1.O=C([CH-]C(=O)c1ccccc1)c1ccccc1.[OH-].[OH-].[Ti+4]: > 100 µM
- Cc1ccc(N=Nc2c(O)c(C(=O)Nc3ccccc3)cc3ccccc23)c([N+](=O)[O-])c1: > 100 µM

---

# Test system: CAKI-1 renal
# EXPERIMENT_DESCRIPTION: NCI tumour cell line growth inhibition, 48 h
MEASURE_NAME: TGI

* CN1COc2c(n(C)c(=O)[nH]c2=O)C1 | > 68.3 µM
* COc1ccc(C(Cl)=C(c2ccc(OCCN(C)C)cc2)c2ccc(OCCN(C)C)cc2)cc1 | 16.3 µM
* O=C(Nc1cccc(F)c1)c1cc2ccc(O)cc2oc1=Nc1ccccc1F | 15 µM
* C=C1CCC2[C@@H](CCC3[C@]2(C)CCC[C@]3(C)C(=O)OC)[C@@H]1CC=O (stereo partly specified) | > 100 µM
* Cn1cc(-c2nonc2-c2cn(C)c3ccccc23)c2ccccc21 | > 100 µM
* COc1cc2c(cc1OC)C1(c3ccc(Cl)cc3)ON=C(c3ccccc3)N1CS2 (stereo unspecified) | > 100 µM
* CC(C)c1c2[nH]c3ccccc3c2c(C(C)C)c2[nH]c3ccccc3c12 | > 100 µM
* COc1cc(C(c2ccc3c(c2)OCO3)N2C(=O)CCC2C(=O)O)cc(OC)c1OC (stereo unspecified) | > 100 µM
* CCN(Cc1ccc(Cl)s1)c1ccc(CO)c(Cl)c1 | 34.6 µM
* O=[As](O)(O)c1ccc(N=Nc2ccc(O)cc2)cc1 | > 100 µM
* CC(=O)Oc1ccccc1C(=O)/C=C/c1cccc([N+](=O)[O-])c1 | 14.9 µM

---

# System: MCF7 breast
# EXPERIMENT_DESCRIPTION: NCI tumour cell line growth inhibition, 48 h; in the data active means GI50 below about 0.43 µM; inactive means the rest
Classes used: true (1) (active), false (0) (inactive)

- COC1O[C@@H]2C[C@H]3C(C)(C)CCC[C@]3(C)C3=CCCC1[C@@]32C (stereo partly specified): false (0)
- COc1ccc(C2[C@@H](Cl)C(=O)N2c2cc(OC)c(OC)c(OC)c2)cc1Cl (stereo partly specified): true (1)
- CN1CCC(n2cnc(-c3ccc(F)cc3)c2-c2ccnc(N)n2)CC1: false (0)
- CCN1C(=O)N(CC)C2C1NN=c1s/c(=C\c3ccccc3Br)c(=O)n12 (stereo unspecified): true (1)
- Cc1c(C2=C(c3cn(C)c4ccccc34)C(=O)NC2=O)c2ccccc2n1C: false (0)
- CCN1C(=O)N(CC)C2C1NN=c1s/c(=C3\C(=O)N(CCc4ccccc4)c4ccccc43)c(=O)n12 (stereo unspecified): true (1)
- CC(=O)c1c(C(F)(F)F)n([O-])c2ccc(C)cc2[n+]1=O: false (0)
- CN1CCN(CC(O)COc2c(Br)c(Br)c(Br)c3c2OC(C)(C)C3)CC1 (stereo unspecified): false (0)
- CCN(Cc1ccc(Cl)s1)c1ccc(CO)c(Cl)c1: true (1)
- O=c1[nH]cnc2c(C3NC(CO)C(O)C3O)c[nH]c12 (stereo unspecified): false (0)
- CC1OC(O[C@H]2/C=C/C=C/C=C/C=C/C=C/C=C/C=C/[C@H](C)[C@@H](O)[C@@H](C)[C@H](C)OC(=O)CC(O)CC(O)CCC(O)C(O)CC(O)C[C@]3(O)C[C@H](O)C(C(=O)O)C(C2)O3)C(O)[C@H](N)C1O (stereo partly specified): false (0)
- C#CCOc1cccc(Nc2ncnc3c(NC(=O)CCl)cccc23)c1: false (0)
- CCCCCn1sc(=O)n(Cc2ccc(CNC(=O)OCc3ccc4cccc(O)c4n3)cc2)c1=O: false (0)
- N#CN1CC[C@H](C(=O)Nc2ncc(-c3ccncc3)s2)C1: true (1)
- CC(C)(C)CN1CCn2c(nc3c(N)nccc32)S1: false (0)
- COc1ccc(/C=N/NC(=O)Cn2c(-c3ccc(S(C)(=O)=O)cc3)nc3cc(Cl)ccc32)cc1: false (0)
